# ASSAY NOTES: AUC (0 to 12 hrs) in rat 55 mg/kg, po
# Type: ADME, organism-based
# Design: time < 12 hr, dose 55 mg/kg, route oral
# ASSAY CONTEXT: plasma
PROPERTY LABEL: AUC(0-t) at 12 h (ng·h/mL)
Give bare numbers, in ng·h/mL.

Could you tell me AUC(0-t) at 12 h for each of these compounds? They are listed below.
1. CCN1C(=O)CCCc2c1ccc(Nc1ncc(Cl)c(N[C@H]3[C@@H](C(N)=O)[C@@H]4C=C[C@H]3C4)n1)c2OC
2. COc1c(Nc2ncc(Cl)c(N[C@H]3[C@@H](C(N)=O)[C@@H]4C=C[C@H]3C4)n2)ccc2c1CC[C@@H](N1CCOCC1)CC2

Result:
[13800, 24100]

* * *

# STUDY TARGET: UniProt:Q9UK32
# Sequence (Q9UK32 whole entry): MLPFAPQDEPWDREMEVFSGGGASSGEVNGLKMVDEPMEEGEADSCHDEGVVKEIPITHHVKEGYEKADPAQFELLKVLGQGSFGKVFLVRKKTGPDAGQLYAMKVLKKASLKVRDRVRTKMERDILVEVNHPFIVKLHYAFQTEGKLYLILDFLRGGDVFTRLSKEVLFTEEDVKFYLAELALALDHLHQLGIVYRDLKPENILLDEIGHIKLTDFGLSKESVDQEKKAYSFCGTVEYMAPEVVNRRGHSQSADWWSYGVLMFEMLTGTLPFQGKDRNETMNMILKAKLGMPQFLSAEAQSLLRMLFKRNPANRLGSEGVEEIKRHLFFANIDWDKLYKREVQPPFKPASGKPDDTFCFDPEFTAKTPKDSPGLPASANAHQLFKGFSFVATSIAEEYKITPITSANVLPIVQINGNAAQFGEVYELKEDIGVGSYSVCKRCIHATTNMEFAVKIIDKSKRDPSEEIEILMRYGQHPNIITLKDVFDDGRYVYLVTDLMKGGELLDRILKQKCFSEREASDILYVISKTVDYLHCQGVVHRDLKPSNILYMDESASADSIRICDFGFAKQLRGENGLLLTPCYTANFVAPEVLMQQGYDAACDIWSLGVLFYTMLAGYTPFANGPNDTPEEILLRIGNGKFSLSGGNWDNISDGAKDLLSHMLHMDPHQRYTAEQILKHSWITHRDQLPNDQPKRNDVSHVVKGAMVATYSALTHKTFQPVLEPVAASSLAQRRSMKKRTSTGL
PROPERTY LABEL: IC50 (nM)
Numbers only, in nM.

Request: // IC50 lookup, key: COc1c(Nc2ncc(Cl)c(N[C@H]3[C@@H](C(N)=O)[C@@H]4C=C[C@H]3C4)n2)ccc2c1CC[C@@H](N1CCOCC1)CC2
Result: 19

* * *

# ASSAY NOTES: Tmax in Sprague-Dawley rat at 10 mg/kg, po
# Type: ADME, organism-based
# Parameters: dose 10 mg/kg, route oral
# ASSAY CONTEXT: in vivo
PROPERTY LABEL: Tmax
Phrase the answer as number then unit, nothing more needed.

Request: What does the data say about its Tmax? Entry: COc1c(Nc2ncc(Cl)c(N[C@H]3[C@@H](C(N)=O)[C@@H]4C=C[C@H]3C4)n2)ccc2c1CC[C@@H](N1CCOCC1)CC2
Result: 1.3 h

* * *

# ASSAY NOTES: Volume of distribution in Sprague-Dawley rat at 1 mg/kg, iv
# Type: ADME, organism-based
# Design: dose 1 mg/kg, route intravenous
# ASSAY CONTEXT: in vivo
PROPERTY LABEL: Vd (L/kg)
One number for each entry, in L/kg.

Request: Query (molecule): COc1c(Nc2ncc(Cl)c(N[C@H]3[C@@H](C(N)=O)[C@@H]4C=C[C@H]3C4)n2)ccc2c1CC[C@@H](N1CCOCC1)CC2 ; field requested: Vd
Result: 1.3

* * *

# ASSAY NOTES: Cmax in rat at 10 mg/kg, po
# Format: ADME, organism-based
# Design: dose 10 mg/kg, route oral
# ASSAY CONTEXT: in vivo
PROPERTY LABEL: Cmax (ng/mL)
Numbers only, in ng/mL.

{"SMILES REPR": "CCN1C(=O)CCCc2c1ccc(Nc1ncc(Cl)c(N[C@H]3[C@@H](C(N)=O)[C@@H]4C=C[C@H]3C4)n1)c2OC", "UNIT ABBREV": "ng/mL", "Cmax": 925}

// next entry
Request: Look up Cmax for this compound: COc1c(Nc2ncc(Cl)c(N[C@H]3[C@@H](C(N)=O)[C@@H]4C=C[C@H]3C4)n2)ccc2c1CC[C@@H](N1CCOCC1)CC2
Result: 349

* * *

# ASSAY NOTES: Drug level in SCID mouse tumor xenografted with human KARPAS299 cells expressing NPM-ALK at 30 mg/kg, po after 12 hrs by LC-MS/MS analysis
# Format: ADME, organism-based, Neoplasm, KARPAS-299
# Design: dose 30 mg/kg, route oral
# ASSAY CONTEXT: read-out: Drug uptake
PROPERTY LABEL: concentration at 12 h (ng/g)
One number for each entry, in ng/g.

Request: Would you kindly share the measured concentration at 12 h for COc1c(Nc2ncc(Cl)c(N[C@H]3[C@@H](C(N)=O)[C@@H]4C=C[C@H]3C4)n2)ccc2c1CC[C@@H](N1CCOCC1)CC2 ?
Result: 1460

* * *

Answer each item with its documented AUC(0-t) at 12 h.
# ASSAY NOTES: AUC (0 to 12 hrs) in rat 10 mg/kg, po
# Format: ADME, organism-based
# Set-up: time < 12 hr, dose 10 mg/kg, route oral
# ASSAY CONTEXT: plasma
Answers are plain numbers, in ng·h/mL.

{"SMILES REPR": "CCN1C(=O)CCCc2c1ccc(Nc1ncc(Cl)c(N[C@H]3[C@@H](C(N)=O)[C@@H]4C=C[C@H]3C4)n1)c2OC", "RESULT VALUE": 6020}

Next:
Request: Entry under review: COc1c(Nc2ncc(Cl)c(N[C@H]3[C@@H](C(N)=O)[C@@H]4C=C[C@H]3C4)n2)ccc2c1CC[C@@H](N1CCOCC1)CC2 . Reported AUC(0-t) at 12 h?
Result: 2570

* * *

# ASSAY NOTES: Cmax in CD-1 mouse at 10 mg/kg, po
# Format: ADME, organism-based
# Design: dose 10 mg/kg, route oral
# ASSAY CONTEXT: in vivo
PROPERTY LABEL: Cmax (ng/mL)
Numbers only, in ng/mL.

Request: Looking for the measured Cmax of COc1c(Nc2ncc(Cl)c(N[C@H]3[C@@H](C(N)=O)[C@@H]4C=C[C@H]3C4)n2)ccc2c1CC[C@@H](N1CCOCC1)CC2 , can you help?
Result: 880

* * *

# STUDY TARGET: Serine/threonine-protein kinase Chk2 (Homo sapiens)
# Sequence (O96017 whole entry): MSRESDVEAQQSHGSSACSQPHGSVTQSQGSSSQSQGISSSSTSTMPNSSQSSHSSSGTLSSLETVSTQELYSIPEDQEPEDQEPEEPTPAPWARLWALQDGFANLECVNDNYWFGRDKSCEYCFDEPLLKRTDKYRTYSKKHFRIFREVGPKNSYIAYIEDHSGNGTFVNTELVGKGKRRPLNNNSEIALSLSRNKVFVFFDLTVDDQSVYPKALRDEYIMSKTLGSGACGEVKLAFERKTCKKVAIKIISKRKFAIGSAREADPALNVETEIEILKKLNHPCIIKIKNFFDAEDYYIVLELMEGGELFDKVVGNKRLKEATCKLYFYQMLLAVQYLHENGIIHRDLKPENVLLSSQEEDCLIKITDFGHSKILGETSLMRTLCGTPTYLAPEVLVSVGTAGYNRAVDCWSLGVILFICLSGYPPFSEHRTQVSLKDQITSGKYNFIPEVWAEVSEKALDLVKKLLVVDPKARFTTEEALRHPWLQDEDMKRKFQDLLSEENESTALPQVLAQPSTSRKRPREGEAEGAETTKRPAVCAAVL
PROPERTY LABEL: pIC50
Numbers only, as −log10 of the molar value.

Request: Quick one: pIC50 for COc1c(Nc2ncc(Cl)c(N[C@H]3[C@@H](C(N)=O)[C@@H]4C=C[C@H]3C4)n2)ccc2c1CC[C@@H](N1CCOCC1)CC2 ?
Result: 7.54

* * *

# ASSAY NOTES: Plasma clearance in CD-1 mouse at 1 mg/kg, iv
# Format: ADME, organism-based
# Parameters: dose 1 mg/kg, route intravenous
PROPERTY LABEL: clearance (mL/min/kg)
One number for each entry, in mL/min/kg.

Request: Look at this molecule and give its reported clearance. COc1c(Nc2ncc(Cl)c(N[C@H]3[C@@H](C(N)=O)[C@@H]4C=C[C@H]3C4)n2)ccc2c1CC[C@@H](N1CCOCC1)CC2
Result: 29

* * *

# ASSAY NOTES: Drug level in SCID mouse tumor xenografted with human KARPAS299 cells expressing NPM-ALK at 30 mg/kg, po after 2 hrs by LC-MS/MS analysis
# Format: ADME, organism-based, Neoplasm, KARPAS-299
# Parameters: dose 30 mg/kg, route oral
# ASSAY CONTEXT: read-out: Drug uptake
PROPERTY LABEL: concentration at 2 h (ng/g)
Give bare numbers, in ng/g.

Request: Look up concentration at 2 h: COc1c(Nc2ncc(Cl)c(N[C@H]3[C@@H](C(N)=O)[C@@H]4C=C[C@H]3C4)n2)ccc2c1CC[C@@H](N1CCOCC1)CC2
Result: 2630

* * *

# STUDY TARGET: Vascular endothelial growth factor receptor 3 (Homo sapiens, UniProt P35916)
# Sequence (P35916 whole entry): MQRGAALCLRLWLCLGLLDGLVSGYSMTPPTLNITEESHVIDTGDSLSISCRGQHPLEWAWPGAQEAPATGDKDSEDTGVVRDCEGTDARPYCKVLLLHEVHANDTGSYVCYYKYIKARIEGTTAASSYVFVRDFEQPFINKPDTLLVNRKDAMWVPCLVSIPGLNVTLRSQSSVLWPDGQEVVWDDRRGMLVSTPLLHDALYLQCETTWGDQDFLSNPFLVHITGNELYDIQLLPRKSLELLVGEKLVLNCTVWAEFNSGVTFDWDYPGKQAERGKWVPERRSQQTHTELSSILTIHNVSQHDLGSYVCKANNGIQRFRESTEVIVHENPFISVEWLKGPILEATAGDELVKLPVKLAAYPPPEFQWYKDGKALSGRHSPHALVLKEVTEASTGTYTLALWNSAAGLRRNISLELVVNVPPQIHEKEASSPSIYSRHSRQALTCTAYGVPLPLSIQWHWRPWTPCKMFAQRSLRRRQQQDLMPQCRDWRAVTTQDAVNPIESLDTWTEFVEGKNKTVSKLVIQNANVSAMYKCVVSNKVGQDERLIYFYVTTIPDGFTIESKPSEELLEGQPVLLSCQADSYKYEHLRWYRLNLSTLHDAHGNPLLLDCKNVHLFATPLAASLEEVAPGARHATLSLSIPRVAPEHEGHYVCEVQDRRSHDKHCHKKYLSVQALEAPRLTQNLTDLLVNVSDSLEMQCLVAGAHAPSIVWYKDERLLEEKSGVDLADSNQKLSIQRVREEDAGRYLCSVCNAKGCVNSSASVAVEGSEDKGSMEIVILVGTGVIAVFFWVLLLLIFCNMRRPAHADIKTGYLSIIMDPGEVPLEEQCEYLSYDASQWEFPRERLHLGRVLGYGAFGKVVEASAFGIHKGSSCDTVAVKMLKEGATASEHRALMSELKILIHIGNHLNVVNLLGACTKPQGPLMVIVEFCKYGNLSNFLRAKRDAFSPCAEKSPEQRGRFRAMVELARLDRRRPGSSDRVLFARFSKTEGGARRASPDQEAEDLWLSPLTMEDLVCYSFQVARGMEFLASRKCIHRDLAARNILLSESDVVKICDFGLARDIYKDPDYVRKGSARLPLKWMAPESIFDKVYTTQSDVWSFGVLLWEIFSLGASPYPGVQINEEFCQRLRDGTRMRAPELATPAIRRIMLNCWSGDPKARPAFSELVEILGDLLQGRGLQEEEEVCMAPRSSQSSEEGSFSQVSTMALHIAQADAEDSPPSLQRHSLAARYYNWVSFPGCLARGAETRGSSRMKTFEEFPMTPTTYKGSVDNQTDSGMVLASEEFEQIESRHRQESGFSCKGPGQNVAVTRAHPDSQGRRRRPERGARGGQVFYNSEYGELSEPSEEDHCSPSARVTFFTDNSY
PROPERTY LABEL: pIC50
Answers are plain numbers, as −log10 of the molar value.

Request: Which pIC50 is reported for this compound? COc1c(Nc2ncc(Cl)c(N[C@H]3[C@@H](C(N)=O)[C@@H]4C=C[C@H]3C4)n2)ccc2c1CC[C@@H](N1CCOCC1)CC2
Result: 7.32

* * *

# ASSAY NOTES: Plasma clearance in Sprague-Dawley rat at 1 mg/kg, iv
# Format: ADME, organism-based
# Parameters: dose 1 mg/kg, route intravenous
PROPERTY LABEL: clearance (mL/min/kg)
Give bare numbers, in mL/min/kg.

Request: # input compound: COc1c(Nc2ncc(Cl)c(N[C@H]3[C@@H](C(N)=O)[C@@H]4C=C[C@H]3C4)n2)ccc2c1CC[C@@H](N1CCOCC1)CC2 ; wanted: its clearance
Result: 17

* * *

# ASSAY NOTES: Plasma concentration in SCID mouse xenografted with human KARPAS299 cells expressing NPM-ALK at 30 mg/kg, po after 12 hrs by LC-MS/MS analysis
# Type: ADME, organism-based, KARPAS-299
# Parameters: dose 30 mg/kg, route oral
PROPERTY LABEL: concentration at 12 h
A complete answer gives the number and then names the unit.

Request: What value of concentration at 12 h has been recorded for this entry: COc1c(Nc2ncc(Cl)c(N[C@H]3[C@@H](C(N)=O)[C@@H]4C=C[C@H]3C4)n2)ccc2c1CC[C@@H](N1CCOCC1)CC2
Result: 1.57 µg/mL

* * *

# ASSAY NOTES: Half life in CD-1 mouse at 10 mg/kg, po
# Format: ADME, organism-based
# Design: dose 10 mg/kg, route oral
# ASSAY CONTEXT: in vivo
PROPERTY LABEL: half-life (h)
One number for each entry, in h.

Request: Report half-life for COc1c(Nc2ncc(Cl)c(N[C@H]3[C@@H](C(N)=O)[C@@H]4C=C[C@H]3C4)n2)ccc2c1CC[C@@H](N1CCOCC1)CC2 please.
Result: 2.3

* * *

# ASSAY NOTES: Plasma concentration in SCID/beige mouse xenografted with human KARPAS299 cells expressing NPM-ALK at 30 mg/kg, po bid after 2 hrs post last dose by LC-MS/MS analysis
# Assay type: ADME, organism-based, KARPAS-299
# Set-up: dose 30 mg/kg, route oral
PROPERTY LABEL: concentration at 2 h (ng/mL)
One number for each entry, in ng/mL.

Request: I'd like to know its concentration at 2 h. The compound in question is COc1c(Nc2ncc(Cl)c(N[C@H]3[C@@H](C(N)=O)[C@@H]4C=C[C@H]3C4)n2)ccc2c1CC[C@@H](N1CCOCC1)CC2
Result: 4270
